This listing pairs compounds with measured NEUTROPHIL.
# Species on record: Rattus norvegicus
# Measurement description: DrugMatrix - Regimen: Daily Repeat
# Type: toxicity, organism-based, Sprague-Dawley
# Parameters: regimen Daily Repeat, gender Male, age 6-8 weeks
# Condition info: in vivo, po, 0 mg/kg, 72 h, tissue Blood, route oral GAVAGE, dose level Control, time 3 day, vehicle 100 % WATER
Remember to quote the unit after the number.

compound=NNC(=O)c1ccncc1 recorded_value=10.5%

Input: Item COc1cccc(C2(O)CCCCC2CN(C)C)c1 (stereo not given) : provide NEUTROPHIL
Output: 8%

Input: Item Fc1ccc([C@@H]2CCNC[C@H]2COc2ccc3c(c2)OCO3)cc1 : provide NEUTROPHIL
Output: 8%

Input: Item Cc1cc(NS(=O)(=O)c2ccc(N)cc2)no1 : provide NEUTROPHIL
Output: 8.5%

Input: Item CC1(C)S[C@@H]2[C@H](NC(=O)[C@H](N)c3ccc(O)cc3)C(=O)N2[C@H]1C(=O)O : provide NEUTROPHIL
Output: 9%

Input: Item O=C1NC(=O)C(c2ccccc2)(c2ccccc2)N1 : provide NEUTROPHIL
Output: 8.5%

Input: Item COc1ccc(C(CN(C)C)C2(O)CCCCC2)cc1 (stereo not given) : provide NEUTROPHIL
Output: 8.5%
